Listed compounds paired with reported viability, T/C
system: LG0703-F948-PDC complex spheroid viability; experiment: Anticancer human tumor LG0703-F948-PDC patient-derived lung adenocarcinoma cell line growth inhibition [RAS]; details: second compound 0.00949 µM; first compound 0.0316 µM; stronger effect = lower value
Write it as a number; the unit % goes unstated.

Incoming: Report value: viability, T/C, system: LG0703-F948-PDC complex spheroid viability, compound: C=CC(=O)Nc1cc(Nc2nccc(-c3cn(C)c4ccccc34)n2)c(OC)cc1N(C)CCN(C)C + CCn1c(-c2cc(N3CCN(C)CC3)cnc2C(C)OC)c2c3cc(ccc31)-c1csc(n1)CC(NC(=O)C1CC1C)C(=O)N1CCCC(N1)C(=O)OCC(C)(C)C2
Outgoing: 12.6

###

test system: LG0703-F948-PDC complex spheroid viability; assay: Anticancer human tumor LG0703-F948-PDC cell line growth inhibition [RAS]; details: second compound 0.316 µM; first compound 0.0316 µM; stronger effect = lower value;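 further: spheroids exposed to agents for 7 days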;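 on viability, T/C: 100% = DMSO vehicle wells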
Items are presented alongside their recorded viability, T/C.

// below: answered molecules
{"columns": ["molecule", "viability, T/C"],
 "data": [
  ["CCN1CCN(Cc2ccc(Nc3ncc(F)c(-c4cc(F)c5nc(C)n(C(C)C)c5c4)n3)nc2)CC1 + C=CC(=O)N1CCN(c2nc(OCC3CCCN3C)nc3c(F)c(-c4nc(N)cc(C)c4C(F)(F)F)c(Cl)cc23)C(C)C1", "89.6%"],
  ["CC(C)NCC(C(=O)N1CCN(c2ncnc3c2C(C)CC3O)CC1)c1ccc(Cl)cc1 (stereo not given) + C#Cc1c(F)ccc2cc(O)cc(-c3ncc4c(N5CC6CCC(C5)N6)nc(OCC56CCCN5CC(F)C6)nc4c3F)c12", "82.5%"],
  ["CC(C)n1nc(-c2ccc3oc(N)nc3c2)c2c(N)ncnc21 + C=CC(=O)N1CCN(c2nc(OCC3CCCN3C)nc3c(F)c(-c4nc(N)cc(C)c4C(F)(F)F)c(Cl)cc23)C(C)C1", "12.9%"],
  ["CC1(O)CCCC1n1c(=O)c(C(F)F)cc2cnc(NC3CCN(S(C)(=O)=O)CC3)nc21 (stereo not given) + C=CC(=O)N1CCN(c2nc(OCC3CCCN3C)nc3c(F)c(-c4nc(N)cc(C)c4C(F)(F)F)c(Cl)cc23)C(C)C1", "106%"]
]}

Incoming: For the molecule CC(Nc1ccc2c(c1)OCCn1cc(N3C(=O)OCC3C(F)F)nc1-2)C(N)=O (stereo not given) + C=CC(=O)N1CCN(c2nc(OCC3CCCN3C)nc3c(F)c(-c4nc(N)cc(C)c4C(F)(F)F)c(Cl)cc23)C(C)C1 , give its measured viability, T/C value.
Outgoing: 113%

###

test system: LG0703-F948-PDC complex spheroid viability; assay: Anticancer human tumor LG0703-F948-PDC cell line growth inhibition [RAS]; conditions: curve of first compound; second compound 0.1 µM;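 further: spheroids exposed to agents for 7 days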
measurement_kind: pIC50
# reply with the number alone; pIC50 is -log10 of concentration in mol/L

Incoming: For the compound NC1c2ccccc2OC12CCN(c1cnc3c(N4CCCc5ncccc54)n[nH]c3n1)CC2 (configuration not stated) + C=CC(=O)N1CCN(c2nc(OCC3CCCN3C)nc3c(F)c(-c4nc(N)cc(C)c4C(F)(F)F)c(Cl)cc23)C(C)C1 , give its measured pIC50 value.
Outgoing: 7.29
